test: High throughput formulation screening: solubility of compound in 96 formulations (5 μL scale, image capture); format: physicochemical; conditions: peppermint oil (formulation screening solution), oil or lipid, thermodynamic from solid; target 10 mg/mL; peppermint oil
reported_endpoint: solubility

// solubility value for O=C(Nc1ccc(Cl)cc1)Nc1ccc(Cl)c(Cl)c1 [TCC, 3,4,4′-trichlorocarbanilide] : ~10000 µg/mL

---

test: High throughput formulation screening: solubility of compound in 96 formulations (5 μL scale, image capture); assay type: physicochemical; conditions: Labrasol (formulation screening solution), aqueous with cosolvent or surfactant or cyclodextrin, thermodynamic from solid; target 10 mg/mL; Labrasol
reported_endpoint: solubility

// solubility value for O=C(Nc1ccc(Cl)cc1)Nc1ccc(Cl)c(Cl)c1 [TCC, 3,4,4′-trichlorocarbanilide] : ~10000 µg/mL

---

experiment: High throughput formulation screening: solubility of compound in 96 formulations (5 μL scale, image capture); format: physicochemical; settings: lauroglycol FCC (formulation screening solution), oil or lipid, thermodynamic from solid; target 10 mg/mL; lauroglycol FCC
reported_endpoint: solubility

// solubility value for O=C(Nc1ccc(Cl)cc1)Nc1ccc(Cl)c(Cl)c1 [TCC, 3,4,4′-trichlorocarbanilide] : ~10000 µg/mL

---

assay: High throughput formulation screening: solubility of compound in 96 formulations (5 μL scale, image capture); format: physicochemical; conditions: Softigen 767 (formulation screening solution), aqueous with cosolvent or surfactant or cyclodextrin, thermodynamic from solid; target 10 mg/mL; Softigen 767
reported_endpoint: solubility

// solubility value for O=C(Nc1ccc(Cl)cc1)Nc1ccc(Cl)c(Cl)c1 [TCC, 3,4,4′-trichlorocarbanilide] : ~10000 µg/mL
